meta.source: patent US20250170136A1

# System: COV318 cells
# Experimental Protocol: Cell proliferation measurement (CellTiter-Glo, 72 h)
# Format: cell-based
# Cond: Homo sapiens, anti-proliferation, COV318, Ovarian cancer, maximum concentration 30 μM
Readout Kind: pIC50
The scale used: pIC50 is minus the common logarithm of the concentration in molar units.

Query: Looking for the measured pIC50 of C[C@@H]1NC(=O)NN=C1c1ccc(-n2ccc(C(F)(F)F)n2)c(C(F)(F)F)c1 [Example 1] , can you help?
Result: 5.05

----------
# System: Mel202 cells
# Experimental Protocol: Cell proliferation measurement (CellTiter-Glo, 72 h)
# Format: cell-based
# Cond: Homo sapiens, anti-proliferation, Mel202, Uveal melanoma
Readout Kind: IC50 (nM)
Report as a plain number; the unit nM is understood.

Query: // returns reported IC50 for input C[C@@H]1NC(=O)NN=C1c1ccc(-n2ccc(C(F)(F)F)n2)c(C(F)(F)F)c1
Result: 74.2

----------
# System: YKG1 cells
# Experimental Protocol: Cell proliferation measurement (CellTiter-Glo, 72 h)
# Assay type: cell-based
# Cond: Homo sapiens, YKG-1, anti-proliferation, YKG1, Brain (Glioblastoma)
pIC50: −log10 of the molar value.
Readout Kind: pIC50

Query: Would you mind telling me what pIC50 value was observed for C[C@@H]1NC(=O)NN=C1c1ccc(-n2ccc(C(F)(F)F)n2)c(C(F)(F)F)c1 ?
Result: < 7.00
